- targetUnderTest: human TLR9 (Homo sapiens)
- assayName: HEK293-Blue-hTLR-9 cells assay (SEAP reporter, ODN2006 stimulation)
- Type: cell-based
endpointName: IC50
Value and unit, in that order.

Incoming: Quick check: IC50 of C[C@@H]1CN(c2ccc(C#N)n3nccc23)C[C@H](C(=O)NC2CC3CCCC(C2)N3C)O1 (stereo partly shown) [Example 35] ?
Outgoing: 11 µM

* * *

- targetUnderTest: human TLR8 (Homo sapiens, UniProt Q9NR97)
- Sequence (Q9NR97 27-1041): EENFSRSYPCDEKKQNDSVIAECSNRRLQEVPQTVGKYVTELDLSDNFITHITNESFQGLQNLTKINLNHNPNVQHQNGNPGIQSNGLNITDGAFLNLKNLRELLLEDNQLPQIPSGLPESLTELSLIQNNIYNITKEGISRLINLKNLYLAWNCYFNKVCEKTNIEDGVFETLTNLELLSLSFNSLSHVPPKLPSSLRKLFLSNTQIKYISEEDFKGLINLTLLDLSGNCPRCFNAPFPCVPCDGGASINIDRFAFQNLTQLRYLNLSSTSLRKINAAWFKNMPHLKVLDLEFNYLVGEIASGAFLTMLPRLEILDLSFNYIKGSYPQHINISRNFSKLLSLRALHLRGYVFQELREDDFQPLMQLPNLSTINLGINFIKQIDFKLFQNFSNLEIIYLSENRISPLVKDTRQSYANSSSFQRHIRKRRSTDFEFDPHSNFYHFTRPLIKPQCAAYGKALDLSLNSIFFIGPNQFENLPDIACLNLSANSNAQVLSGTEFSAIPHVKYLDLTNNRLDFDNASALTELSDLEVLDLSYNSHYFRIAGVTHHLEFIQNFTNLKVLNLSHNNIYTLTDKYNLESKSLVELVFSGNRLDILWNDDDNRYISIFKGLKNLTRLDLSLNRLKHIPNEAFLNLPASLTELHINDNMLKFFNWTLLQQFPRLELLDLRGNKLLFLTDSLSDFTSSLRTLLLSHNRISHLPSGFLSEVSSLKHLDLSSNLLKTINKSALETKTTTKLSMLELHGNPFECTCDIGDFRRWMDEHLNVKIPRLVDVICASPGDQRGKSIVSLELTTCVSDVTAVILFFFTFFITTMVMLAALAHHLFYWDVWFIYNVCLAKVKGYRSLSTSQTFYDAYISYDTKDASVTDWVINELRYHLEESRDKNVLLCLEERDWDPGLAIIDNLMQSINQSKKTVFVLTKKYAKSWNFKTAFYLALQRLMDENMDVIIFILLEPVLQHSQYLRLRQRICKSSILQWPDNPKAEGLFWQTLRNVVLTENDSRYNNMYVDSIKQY
- assayName: HEK293-Blue-hTLR-8 cells assay (SEAP reporter, R848 stimulation)
- Assay type: cell-based
- conditionLabel: HEK293-Blue-hTLR-8 cells, R848 ligand, 20 hrs incubation; read-out: TLR8 IC50
Field 'label' (enum: TRUE / FALSE). Set to TRUE when IC50 is strictly under 70 nM; else FALSE.

# compound, assignedCategory
measured = [
    ("C[C@@H]1CN(c2ccc(C#N)n3nccc23)C[C@H](C(=O)NC2C3CCC2CNC3)O1 (stereo partly shown) [Example 26]", "FALSE"),
    ("C[C@@H]1CN(c2ccc(Cl)n3nccc23)C[C@H](C(=O)NC2CCN(C)CC2)O1 [Example 38]", "TRUE"),
    ("C[C@@H]1CN(c2ccc(C#N)n3nccc23)C[C@H](C(=O)NC2CC3CCC2CN3C)O1 (stereo partly shown) [Example 34]", "FALSE"),
    ("C[C@@H]1CN(c2ccc(C#N)n3nccc23)C[C@H](C(=O)NC23CC(CO)(C2)C3)O1 [Example 15]", "FALSE"),
    ("C[C@@H]1CN(c2ccc(C#N)n3ncc(F)c23)C[C@H](C(=O)NC2CCN(C)CC2)O1 [Example 47]", "TRUE"),
    ("C[C@@H]1CN(c2ccc(C#N)n3nccc23)C[C@H](C(=O)NC2CC3CCC(C2)N3C)O1 (stereo partly shown) [Example 33]", "TRUE"),
    ("C[C@@H]1CN(c2ccc(C#N)n3nccc23)C[C@H](C(=O)NC23CC4CC(CC(C4)C2)C3)O1 [Example 12]", "FALSE"),
    ("C[C@@H]1CN(c2ccc(C#N)n3nccc23)C[C@H](C(=O)NC2CNC[C@H]2F)O1 (stereo partly shown) [Example 5]", "TRUE"),
    ("C[C@@H]1CN(c2ccc(C#N)n3nccc23)C[C@H](C(=O)N[C@H]2CNC[C@H]2F)O1 [Example 2]", "FALSE"),
    ("C[C@H]1C[C@@H](NC(=O)[C@H](C)N)CN(c2ccc(C#N)n3nccc23)C1 [Example 44]", "FALSE"),
]

Incoming: Could you please tell me whether IC50 recorded for C[C@@H]1CN(c2ccc(C#N)n3nccc23)C[C@H](C(=O)Nc2ccc(C(=O)N3CCNCC3)cc2)O1 [Example 42] is less than 70 nM?
Outgoing: TRUE

Incoming: For this compound, is IC50 lower than 70 nM? C[C@@H]1CN(c2ccc(C#N)n3nccc23)C[C@H](C(=O)NC2CCNC2)O1 (stereo partly shown) [Example 25]
Outgoing: FALSE

Incoming: Criterion: IC50 strictly below 70 nM. Is it met by C[C@@H]1CN(c2ccc(C#N)n3nccc23)C[C@H](C(=O)N2CC(N)C2)O1 [Example 8] ?
Outgoing: FALSE

Incoming: Just wondering, is IC50 of C[C@@H]1CN(c2ccc(C#N)n3nccc23)C[C@H](C(=O)NC2CC3CC2CN3)O1 (stereo partly shown) [Example 36] below 70 nM?
Outgoing: FALSE

Incoming: Identify whether the compound C[C@@H]1CN(c2ccc(C#N)n3nccc23)C[C@H](C(=O)NC2CCOCC2)O1 [Example 4] records IC50 below 70 nM.
Outgoing: FALSE

* * *

- targetUnderTest: UniProt:Q9NYK1
- Sequence (Q9NYK1 27-1049): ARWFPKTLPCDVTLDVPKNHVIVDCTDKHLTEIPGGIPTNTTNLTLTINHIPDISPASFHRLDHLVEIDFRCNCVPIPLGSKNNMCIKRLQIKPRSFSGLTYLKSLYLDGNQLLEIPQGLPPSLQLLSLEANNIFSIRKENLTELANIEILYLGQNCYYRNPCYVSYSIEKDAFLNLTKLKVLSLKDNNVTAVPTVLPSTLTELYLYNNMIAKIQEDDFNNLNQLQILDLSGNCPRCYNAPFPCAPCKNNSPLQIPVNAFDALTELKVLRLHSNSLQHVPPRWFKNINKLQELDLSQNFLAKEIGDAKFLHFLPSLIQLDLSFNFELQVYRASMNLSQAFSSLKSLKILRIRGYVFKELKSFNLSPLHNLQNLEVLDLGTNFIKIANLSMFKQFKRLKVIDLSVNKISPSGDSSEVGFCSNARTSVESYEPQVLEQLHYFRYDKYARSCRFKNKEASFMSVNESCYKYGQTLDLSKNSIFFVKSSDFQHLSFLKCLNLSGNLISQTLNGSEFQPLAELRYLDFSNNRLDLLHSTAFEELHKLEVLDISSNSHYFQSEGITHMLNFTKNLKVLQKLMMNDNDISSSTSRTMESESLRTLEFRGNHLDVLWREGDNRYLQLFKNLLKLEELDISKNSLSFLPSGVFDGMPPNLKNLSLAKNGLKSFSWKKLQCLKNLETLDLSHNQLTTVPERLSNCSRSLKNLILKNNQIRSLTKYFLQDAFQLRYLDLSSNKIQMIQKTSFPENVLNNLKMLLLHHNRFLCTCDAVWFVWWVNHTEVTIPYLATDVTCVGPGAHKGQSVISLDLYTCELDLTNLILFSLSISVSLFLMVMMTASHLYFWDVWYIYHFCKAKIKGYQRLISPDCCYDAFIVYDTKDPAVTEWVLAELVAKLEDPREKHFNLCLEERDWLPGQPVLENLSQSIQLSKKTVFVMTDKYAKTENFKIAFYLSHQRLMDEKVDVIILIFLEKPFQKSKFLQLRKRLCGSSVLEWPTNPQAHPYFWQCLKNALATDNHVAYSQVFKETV
- assayName: HEK293-Blue-hTLR-7 cells assay (SEAP reporter, R848 stimulation)
- Assay type: cell-based
endpointName: IC50 (nM)
Numbers only, in nM.

Incoming: Data request, read-out IC50, for C[C@@H]1CN(c2ccc(C#N)n3nccc23)C[C@H](C(=O)NC2CC3CCCC(C2)N3C)O1 (stereo partly shown)
Outgoing: 4

* * *

- targetUnderTest: human TLR8 (Homo sapiens, UniProt Q9NR97)
- assayName: HEK293-Blue-hTLR-8 cells assay (SEAP reporter, R848 stimulation)
- Assay type: cell-based
- conditionLabel: HEK293-Blue-hTLR-8 cells, R848 ligand, 20 hrs incubation; read-out: TLR8 IC50
endpointName: pIC50
One number for each entry, as −log10 of the molar value.

Solved cases (5 shown):
# compound, pIC50
records = [
    ("CCC(O)CNC(=O)[C@H]1CN(c2ccc(C#N)n3nccc23)C[C@@H](C)O1 (some centres unmarked) [Example 13]", 6.24),
    ("C[C@@H]1CN(c2ccc(C#N)n3nccc23)C[C@H](C(=O)NC2CC3COCC(C2)N3)O1 (some centres unmarked) [Example 22]", 7.60),
    ("C[C@@H]1CN(c2ccc(C#N)n3nccc23)C[C@H](C(=O)N[C@H]2CC[C@H](O)CC2)O1 [Example 21]", 6.24),
    ("C[C@@H]1CN(c2ccc(C#N)n3nccc23)C[C@H](C(=O)NCC2CN(C)CCO2)O1 (some centres unmarked) [Example 7]", 7.30),
    ("C[C@@H]1CN(c2ccc(C#N)n3nccc23)C[C@H](C(=O)NC2CN(C)CC23CC3)O1 (some centres unmarked) [Example 32]", 7.51),
]

Hi! Can you tell me pIC50 for each of these compounds?
1. C[C@@H]1CN(c2ccc(C#N)n3nccc23)C[C@H](C(=O)NCC2CCNC2)O1 (some centres unmarked) [Example 40]
2. C[C@@H]1CN(c2ccc(C#N)n3nccc23)C[C@H](C(=O)NC2(C)CCNCC2)O1 [Example 19]
3. CCC(C)(C)NC(=O)[C@H]1CN(c2ccc(C#N)n3nccc23)C[C@@H](C)O1 [Example 17]
4. C[C@@H]1CN(c2ccc(C#N)n3nccc23)C[C@H](C(=O)N2CCC3(CCNCC3)CC2)O1 [Example 28]
5. C[C@@H]1CN(c2ccc(C#N)n3nccc23)C[C@H](C(=O)NC(C)(C)CN)O1 [Example 41]
6. C[C@@H]1CN(c2ccc(C#N)n3nccc23)C[C@H](C(=O)N[C@H]2CC[C@@H](O)CC2)O1 [Example 20]
7. C[C@@H]1CN(c2ccc(C#N)n3nccc23)C[C@H](C(=O)NC2CC3(CNC3)C2)O1 [Example 3]
8. C[C@@H]1CN(c2ccc(C#N)n3nccc23)C[C@H](C(=O)NC2CC3CCCC(C2)N3)O1 (some centres unmarked) [Example 14]

Outgoing:
[6.42, 7.57, 7.00, 7.01, 6.85, 6.72, 7.02, 7.52]

List the reported pIC50 of each compound below.
1. C[C@@H]1CN(c2ccc(C#N)n3nccc23)C[C@H](C(=O)NC2C3CNCC2COC3)O1 (some centres unmarked) [Example 27]
2. C[C@@H]1CN(c2ccc(C#N)n3nccc23)C[C@H](C(=O)NC2CC3CCC(C2)N3)O1 (some centres unmarked) [Example 23]
3. C[C@@H]1CN(c2ccc(C#N)n3nccc23)C[C@H](C(=O)NCC(C)(C)CN)O1 [Example 39]

Outgoing:
6.43
7.13
7.48

Incoming: I would be grateful if you could share the reported pIC50 for C[C@@H]1CN(c2ccc(C#N)n3nccc23)C[C@H](C(=O)NCC2CNCC2(F)F)O1 (some centres unmarked) [Example 18] .
Outgoing: 7.00

* * *

- targetUnderTest: human TLR9 (Homo sapiens)
- Sequence (Q9NR96 26-1032): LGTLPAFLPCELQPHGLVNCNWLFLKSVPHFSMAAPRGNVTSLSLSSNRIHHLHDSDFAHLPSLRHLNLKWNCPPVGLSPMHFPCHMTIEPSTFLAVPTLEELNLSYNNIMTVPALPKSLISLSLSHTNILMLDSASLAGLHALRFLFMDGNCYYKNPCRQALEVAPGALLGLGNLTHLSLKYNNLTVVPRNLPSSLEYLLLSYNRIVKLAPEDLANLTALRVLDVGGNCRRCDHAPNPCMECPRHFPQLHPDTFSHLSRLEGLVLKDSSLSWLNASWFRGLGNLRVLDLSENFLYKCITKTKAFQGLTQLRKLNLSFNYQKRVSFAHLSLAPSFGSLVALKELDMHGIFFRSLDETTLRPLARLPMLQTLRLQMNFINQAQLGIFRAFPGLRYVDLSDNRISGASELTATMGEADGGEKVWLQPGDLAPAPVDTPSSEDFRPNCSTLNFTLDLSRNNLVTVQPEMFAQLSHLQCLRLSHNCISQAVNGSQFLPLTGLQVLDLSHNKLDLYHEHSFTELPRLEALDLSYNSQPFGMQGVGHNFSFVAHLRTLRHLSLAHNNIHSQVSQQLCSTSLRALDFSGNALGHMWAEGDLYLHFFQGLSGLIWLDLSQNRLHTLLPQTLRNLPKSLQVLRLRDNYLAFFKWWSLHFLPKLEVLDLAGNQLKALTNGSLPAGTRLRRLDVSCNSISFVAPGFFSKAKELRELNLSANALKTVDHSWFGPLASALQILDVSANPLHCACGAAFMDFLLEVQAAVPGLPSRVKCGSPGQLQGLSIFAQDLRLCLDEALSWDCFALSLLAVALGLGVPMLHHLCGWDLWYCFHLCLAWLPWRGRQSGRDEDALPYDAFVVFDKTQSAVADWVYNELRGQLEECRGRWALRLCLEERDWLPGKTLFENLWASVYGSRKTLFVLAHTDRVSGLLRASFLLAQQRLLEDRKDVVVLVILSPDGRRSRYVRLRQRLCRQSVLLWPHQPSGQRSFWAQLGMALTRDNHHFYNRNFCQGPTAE
- assayName: HEK293-Blue-hTLR-9 cells assay (SEAP reporter, ODN2006 stimulation)
- Assay type: cell-based
- conditionLabel: HEK293-Blue-hTLR-9 cells, ODN2006 ligand, 20 hrs incubation; read-out: TLR9 IC50
endpointName: IC50 (µM)
One number for each entry, in µM.

# molecule, measuredNumber
rows = [
    ("C[C@@H]1CN(c2ccc(C#N)n3nccc23)C[C@H](C(=O)NC2CC3CCC2CN3C)O1 (some centres unmarked)", 11),
]

Hey, can you go through the list below and give me IC50 for every item?
1. C[C@@H]1CN(c2ccc(C#N)n3nccc23)C[C@H](C(=O)NC2CN(C)CC23CC3)O1 (some centres unmarked)
2. C[C@@H]1CN(c2ccc(C#N)n3nccc23)C[C@H](C(=O)NC2CC3CC2CN3)O1 (some centres unmarked)
3. C[C@@H]1CN(c2ccc(C#N)n3nccc23)C[C@H](C(=O)NCC2CN(C)CCO2)O1 (some centres unmarked)
4. C[C@@H]1CN(c2ccc(C#N)n3nccc23)C[C@H](C(=O)NC2CC3COCC(C2)N3)O1 (some centres unmarked)
5. C[C@@H]1CN(c2ccc(C#N)n3nccc23)C[C@H](C(=O)NCC2CCNC2)O1 (some centres unmarked)

Outgoing:
9.7
12
58
18
48

Incoming: I have this molecule here, C[C@@H]1CN(c2ccc(C#N)n3nccc23)C[C@H](C(=O)NC2CC3CCC(C2)N3C)O1 (some centres unmarked) , and I need its recorded IC50.
Outgoing: 7.7
